Target: T1, cynomolgus TROP2-his protein (cynomolgus monkey, UniProt P09758 27-272 (human entry), limits assumed)
T1 construct: no cleavage site is stated; also called Cynomolgus monkey TROP2-his protein; monkey TROP2
T1 chain: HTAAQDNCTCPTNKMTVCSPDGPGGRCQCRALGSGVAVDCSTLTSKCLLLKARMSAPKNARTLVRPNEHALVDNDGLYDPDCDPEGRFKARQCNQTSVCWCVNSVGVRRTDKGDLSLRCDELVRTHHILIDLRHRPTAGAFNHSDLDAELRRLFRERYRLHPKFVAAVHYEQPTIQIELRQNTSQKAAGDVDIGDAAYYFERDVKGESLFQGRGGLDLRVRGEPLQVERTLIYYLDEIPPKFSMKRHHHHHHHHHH
Experiment: SPR Biacore T200, mAb captured on anti-mouse IgG CM5 chip, TROP2-his analyte
endpointLabel: Kd
Param answer (str): number followed by unit.

binder	endpointLabel	testValue
mouse antibody A1H3C5H8E12 (antibody, V domains shown, Mouse monoclonal IgG purified from hybridoma supernatant) VH: QVQLQQSGAELVRPGTSVKMSCKAAGYTFTNYWIDWVKQRPGHGLEWIGNIFPGGFYTNYNEKFKGKATLTADTSSSTAYMQLSSLTSEDSAIYYCARGGVFDYWGQGTTLTVSS VL: DILLTQSPAILSVSPGERVSFSCRASQSIGTSIHWYQQRTNGSPRLLIKYASESISGIPSRFSGSGSGTDFTLSINSVESEDIADYYCQQSNSWPYTFGGGTKLEIK	Kd	1.12 nM
mouse antibody C1B3B12D2 (antibody, V domains shown, Mouse monoclonal IgG purified from hybridoma supernatant) VH: QVQLQQSGPELVRPGTSVKMSCKAAGYTFTKFWIGWVKQRPGHGLEWIGNIYPGGAYINYNENFKGKATLTADTFSSTAYMQLNSLTSADSAIYYCAREGSSGYWGQGTTLTVSS VL: DIVMTQSPSSLTVTAGEKVTLSCKCSQSLLNSGTQENYLTWYQQKPGQPPKMLIYWASIREPGVPDRFTGSGSGTDFTLTINNVQAEDLAVYYCQHDYSYPFTFGSGTKLEIK	Kd	0.00186 nM
mouse antibody A1B12D2B4E7B3 (antibody, V domains shown, Mouse monoclonal IgG purified from hybridoma supernatant) VH: EVQLQQSGPELVKPGASVKMSCKASGFTFTDYYMNWVKQSHGKSLEWIGYIYPNHGGTGYNQKFKDKATLTVDKSSSTAYMELRSLTSDDSAVYYCARENYGYAMDYWGQGTSVTVSS VL: DVVMTQTPLSLPVSLGDQASISCRSSQSLVHGDGNTYLHWFLQKPGQSPKLLIYTVSNRFSGVPDRFSGSGSGTDFTLKINRVEAEDLGIYFCSQTTHVPTFGGGTKLEIK	Kd	1.12 nM
mouse antibody B1G1F5A3 (antibody, V domains shown, Mouse monoclonal IgG purified from hybridoma supernatant) VH: EVQLQQSGPELVKPGTSVKMSCKASGYSFADYSMNWVRQSHGNSLEWIGYIYPNNGASGFNQKFKGKATLTVDKSSSTAYMELHSLTSEDSAVYYCAREQDNSGYCFDYWGQGTSLTVSS VL: DVVMTQTPLSLAVRLGDQASISCRSSLNLVHSNGNTFLHWYLQRPGQSPKLLIYKVSNRFSGVSDRFSGSGSGTDFTLKISRVEAEDLGVYFCSQTTHVPTFGGGTKLEIK	Kd	0.568 nM

Sample mouse antibody A1E11A12D1 (antibody, V domains shown, Mouse monoclonal IgG purified from hybridoma supernatant) VH: QVQLQQSGAELARPGASVKLSCMASGYTFTTYGISWVRQRTGQGLEWIGQIYPGSDYSYCDEDFKGKATLTADKSSSTAYMQLSSLTSEDSAVYFCARASYFDYWGQGTTLTVSS VL: DILLTQSPAILSVSPGERVSFSCRASQTIGTAIHWYQQRANGSPRLLIKYASESISGIPSRFSGSGSGTDFALSINTVESEDFAYYYCQQSNNWPFTFGGGTKLEIR ; Kd observed: 0.0563 nM

Data provenance is patent US20240207432A1.
